// data source = patent US20230148005A1

system: Ba/F3 Parental; assay: Ba/F3 viability assay (CellTiter-Glo), parental; format: cell-based; conditions: Mus musculus, BaF3, anti-proliferation
quantity name: IC50

compound="CC1CCOc2c(cnn2C)-c2nccc(n2)Nc2cc3c(cn2)c(-c2ccn(C)n2)nn31 (stereo not drawn)" test_system="Ba/F3 Parental" quantity_name=IC50 recorded_measurement="≥ 1 µM"

GET /value?item= Cc1nn(CCC(C)(C)O)cc1-c1nn2c3cc(ncc13)Nc1ccnc(n1)-c1cnn(C)c1OCCCC2C (stereo not drawn) &field=IC50 returns 0.1 to 1 µM

GET /value?item= CCn1cc(-c2nn3c4cc(ncc24)Nc2ccnc(n2)-c2cnn(C)c2OCCC3C)cc1CN1CCN(C)CC1 (stereo not drawn) &field=IC50 returns 0.01 to 0.1 µM

GET /value?item= `C[C@H]1CCOc2c(cnn2C)-c2nccc(n2)Nc2cc3c(cn2)c(-c2ccc(CN4CCN(C5CC5)CC4)n2C)nn31` &field=IC50 returns 0.1 to 1 µM

GET /value?item= CC1CCCOc2c(cnn2C)-c2nccc(n2)Nc2cc3c(cn2)c(-c2ccnn2C)nn31 (stereo not drawn) &field=IC50 returns 0.1 to 1 µM

GET /value?item= `CCN(CC)CCOc1cccc(-c2nn3c4cc(ncc24)Nc2ccnc(n2)-c2cnn(C)c2OCC[C@@H]3C)c1C` &field=IC50 returns 0.1 to 1 µM

GET /value?item= `CCCN(C)Cc1ccc(-c2nn3c4cc(ncc24)Nc2ccnc(n2)-c2cnn(C)c2OCC[C@@H]3C)n1C` &field=IC50 returns 0.1 to 1 µM

GET /value?item= `Cc1nc(-c2nn3c4cc(ncc24)Nc2ccnc(n2)-c2cnn(C)c2OCC[C@@H]3C)sc1CN1CCOCC1` &field=IC50 returns 0.1 to 1 µM

GET /value?item= `C[C@H]1CCOc2c(cnn2C)-c2nccc(n2)Nc2cc3c(cn2)c(-c2ccc(CN4CCN(C)CC4)cc2)nn31` &field=IC50 returns 0.01 to 0.1 µM

====

# reported GI50; entries follow
biological target: Ba/F3 EGFR-Del19/C797S (Homo sapiens, UniProt P00533, C797S, cells depend on it, form not given); experiment: Ba/F3 viability assay (CellTiter-Glo), DC; format: cell-based; settings: anti-proliferation, read-out: BaF3 DC IC50
Sequence (P00533 with tags, fused parts or gaps DEL746-750/C797S, form open): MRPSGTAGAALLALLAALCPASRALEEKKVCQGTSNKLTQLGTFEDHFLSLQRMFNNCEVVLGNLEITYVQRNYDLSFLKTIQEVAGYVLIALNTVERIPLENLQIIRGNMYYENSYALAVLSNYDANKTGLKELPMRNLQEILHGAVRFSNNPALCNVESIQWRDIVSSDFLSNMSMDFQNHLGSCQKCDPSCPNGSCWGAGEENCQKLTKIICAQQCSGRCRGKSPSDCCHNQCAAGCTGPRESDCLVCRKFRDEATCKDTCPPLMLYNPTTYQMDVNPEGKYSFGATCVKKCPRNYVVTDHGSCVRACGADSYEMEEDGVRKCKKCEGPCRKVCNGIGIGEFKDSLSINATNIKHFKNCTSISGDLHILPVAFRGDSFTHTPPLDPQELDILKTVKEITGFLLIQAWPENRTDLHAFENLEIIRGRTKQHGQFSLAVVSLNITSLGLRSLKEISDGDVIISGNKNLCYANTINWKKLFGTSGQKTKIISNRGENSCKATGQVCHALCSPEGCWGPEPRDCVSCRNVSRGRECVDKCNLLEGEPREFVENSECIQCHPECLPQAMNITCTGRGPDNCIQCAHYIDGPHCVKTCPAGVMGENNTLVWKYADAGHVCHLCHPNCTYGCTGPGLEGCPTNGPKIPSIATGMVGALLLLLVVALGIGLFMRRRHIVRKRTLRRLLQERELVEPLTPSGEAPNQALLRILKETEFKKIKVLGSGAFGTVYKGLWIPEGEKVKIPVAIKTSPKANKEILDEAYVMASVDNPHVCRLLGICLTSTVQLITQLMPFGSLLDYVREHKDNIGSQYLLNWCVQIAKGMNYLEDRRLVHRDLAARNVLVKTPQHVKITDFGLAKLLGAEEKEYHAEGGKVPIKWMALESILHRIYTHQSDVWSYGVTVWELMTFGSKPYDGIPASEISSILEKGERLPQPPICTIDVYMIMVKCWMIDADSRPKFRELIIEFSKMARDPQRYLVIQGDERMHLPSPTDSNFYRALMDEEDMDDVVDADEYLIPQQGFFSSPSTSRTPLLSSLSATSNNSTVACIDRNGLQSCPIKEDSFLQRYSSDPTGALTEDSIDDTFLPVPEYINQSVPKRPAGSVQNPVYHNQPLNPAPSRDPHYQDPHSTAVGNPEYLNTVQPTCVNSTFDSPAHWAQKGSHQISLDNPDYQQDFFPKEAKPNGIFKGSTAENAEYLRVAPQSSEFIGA

Past entries and their recorded results:
compound="C[C@H]1CCOc2c(cnn2C)-c2nccc(n2)Nc2cc3c(cn2)c(N2CCN(C4CC4)CC2)nn31 [(97)]" quantity_name=GI50 recorded_measurement="100 to 1000 nM"
compound="CCn1ccc(-c2nn3c4cc(ncc24)Nc2ccnc(n2)-c2cnn(C)c2OCCCC3C)n1 (stereo not shown) [(85)]" quantity_name=GI50 recorded_measurement="10 to 100 nM"
compound="CC1CCOc2c(cnn2CC2CC2)-c2nccc(n2)Nc2cc3c(cn2)c(N2CCC2)nn31 (stereo not shown) [(2)]" quantity_name=GI50 recorded_measurement="10 to 100 nM"

GET /value?item= CC1CCOc2c(cnn2C)-c2nccc(n2)Nc2cc3c(cn2)c(N2CC(C(=O)N(C)C)C2)nn31 (stereo not shown) [(16)] &field=GI50 returns 10 to 100 nM

====

# reported GI50; entries follow
molecular target: Ba/F3 EGFR-Del19/T790M (Homo sapiens, UniProt P00533, T790M, cells depend on it, form not given); experiment: Ba/F3 viability assay (CellTiter-Glo), DT; assay type: cell-based; conditions: anti-proliferation, read-out: BaF3 DT IC50
Sequence (P00533 with tags, fused parts or gaps DEL746-750/T790M, form open): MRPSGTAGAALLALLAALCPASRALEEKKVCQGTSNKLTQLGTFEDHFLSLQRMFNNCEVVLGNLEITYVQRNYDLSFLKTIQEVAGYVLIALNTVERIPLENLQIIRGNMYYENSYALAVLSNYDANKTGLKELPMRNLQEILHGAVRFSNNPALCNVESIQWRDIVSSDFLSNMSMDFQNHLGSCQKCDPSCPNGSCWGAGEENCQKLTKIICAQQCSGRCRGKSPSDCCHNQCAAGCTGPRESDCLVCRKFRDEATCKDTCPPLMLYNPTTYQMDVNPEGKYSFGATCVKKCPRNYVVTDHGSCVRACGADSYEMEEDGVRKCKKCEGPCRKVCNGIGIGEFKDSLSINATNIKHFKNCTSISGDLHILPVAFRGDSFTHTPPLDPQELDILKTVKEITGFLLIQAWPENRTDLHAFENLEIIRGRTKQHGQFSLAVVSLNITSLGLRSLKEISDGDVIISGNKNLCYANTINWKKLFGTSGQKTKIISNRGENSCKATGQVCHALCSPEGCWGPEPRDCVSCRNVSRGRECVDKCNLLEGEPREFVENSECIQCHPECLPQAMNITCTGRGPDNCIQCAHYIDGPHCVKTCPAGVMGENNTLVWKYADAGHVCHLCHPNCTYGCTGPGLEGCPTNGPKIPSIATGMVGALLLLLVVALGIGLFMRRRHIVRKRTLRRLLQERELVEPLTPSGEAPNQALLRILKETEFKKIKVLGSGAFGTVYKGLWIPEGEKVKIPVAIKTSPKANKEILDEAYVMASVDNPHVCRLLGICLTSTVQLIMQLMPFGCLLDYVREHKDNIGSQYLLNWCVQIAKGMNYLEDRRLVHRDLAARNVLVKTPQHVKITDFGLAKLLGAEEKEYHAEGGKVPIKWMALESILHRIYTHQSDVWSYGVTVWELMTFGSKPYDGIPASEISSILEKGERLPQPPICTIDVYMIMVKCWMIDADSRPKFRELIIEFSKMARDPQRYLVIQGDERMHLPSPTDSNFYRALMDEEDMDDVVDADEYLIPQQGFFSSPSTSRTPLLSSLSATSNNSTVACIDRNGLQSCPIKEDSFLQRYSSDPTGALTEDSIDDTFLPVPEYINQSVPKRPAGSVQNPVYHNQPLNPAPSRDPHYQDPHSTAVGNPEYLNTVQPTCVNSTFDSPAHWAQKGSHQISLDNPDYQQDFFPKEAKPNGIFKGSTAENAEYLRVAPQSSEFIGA

compound=COCCN(C)Cc1ccc(-c2nn3c4cc(ncc24)Nc2ccnc(n2)-c2cnn(C)c2OCC[C@@H]3C)n1C recorded_measurement="< 10 nM"

GET /value?item= `CC(C)NCc1ccc(-c2nn3c4cc(ncc24)Nc2ccnc(n2)-c2cnn(C)c2OCC[C@@H]3C)n1C` &field=GI50 returns < 10 nM

GET /value?item= `C[C@H]1CCOc2c(cnn2C)-c2nccc(n2)Nc2cc3c(cn2)c(-c2cccc(CN4CCN(C)CC4)c2)nn31` &field=GI50 returns 10 to 100 nM

GET /value?item= COC(=O)C1CCCN1c1nn2c3cc(ncc13)Nc1ccnc(n1)-c1cnn(C)c1OCCC2 (stereo not drawn) &field=GI50 returns 100 to 1000 nM

GET /value?item= `CCN(CC)CCn1cc(-c2nn3c4cc(ncc24)Nc2ccnc(n2)-c2cnn(C)c2OCC[C@@H]3C)cn1` &field=GI50 returns < 10 nM

GET /value?item= CC1CCCOc2c(cnn2C)-c2nccc(n2)Nc2cc3c(cn2)c(N2CCC2)nn31 (stereo not drawn) &field=GI50 returns < 10 nM

GET /value?item= CC(C)N1CCN(CC2CCN(c3nn4c5cc(ncc35)Nc3ccnc(n3)-c3cnn(C)c3OCC[C@@H]4C)C2)CC1 (stereo partly drawn) &field=GI50 returns < 10 nM

GET /value?item= `CC(C)N(C)Cc1ccc(-c2nn3c4cc(ncc24)Nc2ccnc(n2)-c2cnn(C)c2OCC[C@@H]3C)n1C` &field=GI50 returns < 10 nM

GET /value?item= `CCN(CC)C1CCN(c2cc(F)cc(-c3nn4c5cc(ncc35)Nc3ccnc(n3)-c3cnn(C)c3OCC[C@@H]4C)c2)CC1` &field=GI50 returns 10 to 100 nM

GET /value?item= `C[C@H]1CCOc2c(cnn2C)-c2nccc(n2)Nc2cc3c(cn2)c(-c2ccc(CN4CCN(C5CC5)CC4)n2C)nn31` &field=GI50 returns < 10 nM

GET /value?item= `C[C@H]1CCOc2c(cnn2C)-c2nccc(n2)Nc2cc3c(cn2)c(N2CC[C@H](N(C)CCCF)C2)nn31` &field=GI50 returns 10 to 100 nM

GET /value?item= CCn1ccc(-c2nn3c4cc(ncc24)Nc2ccnc(n2)-c2cnn(C)c2OCCCC3C)n1 (stereo not drawn) &field=GI50 returns < 10 nM

GET /value?item= `C[C@H]1CCOc2c(cnn2C)-c2nccc(n2)Nc2cc3c(cn2)c(-c2cc(CN4CCOCC4)n(C)c2)nn31` &field=GI50 returns < 10 nM

GET /value?item= CC1CCOc2c(cnn2C)-c2nccc(n2)Nc2cc3c(cn2)c(-c2ccn(C)n2)nn31 (stereo not drawn) &field=GI50 returns 10 to 100 nM

GET /value?item= `C[C@H]1CCOc2c(cnn2C)-c2nccc(n2)Nc2cc3c(cn2)c(N2CC[C@H](O)C2)nn31` &field=GI50 returns < 10 nM

GET /value?item= `CCCN1CCN(Cc2ccc(-c3nn4c5cc(ncc35)Nc3ccnc(n3)-c3cnn(C)c3OCC[C@@H]4C)n2C)CC1` &field=GI50 returns < 10 nM

GET /value?item= CC(C)n1ncc2c1OCCCC(C)n1nc(N3CCC3)c3cnc(cc31)Nc1ccnc-2n1 (stereo not drawn) &field=GI50 returns 100 to 1000 nM

GET /value?item= `C[C@H]1CCOc2c(cnn2C)-c2nccc(n2)Nc2cc3c(cn2)c(-c2cccc(N4CCC(O)CC4)c2)nn31` &field=GI50 returns < 10 nM

GET /value?item= CC1CCOc2c(cnn2C)-c2nccc(n2)Nc2cc3c(cn2)c(-c2ccc(CN4CCN(C)CC4)o2)nn31 (stereo not drawn) &field=GI50 returns 10 to 100 nM

GET /value?item= `C[C@H]1CCOc2c(cnn2C)-c2nccc(n2)Nc2cc3c(cn2)c(-c2ccc(CN4CCN(CCF)CC4)n2C)nn31` &field=GI50 returns < 10 nM

====

biological target: Ba/F3 EGFR-Del19/C797S (Homo sapiens, UniProt P00533, C797S, cells depend on it, form not given); assay: Ba/F3 viability assay (CellTiter-Glo), DC; type: cell-based; details: anti-proliferation, read-out: BaF3 DC IC50
quantity name: GI50

Past entries and their recorded results:
compound="Cc1ccc(-c2nn3c4cc(ncc24)Nc2ccnc(n2)-c2cnn(C)c2OCC[C@@H]3C)n1C [(150)]" recorded_measurement="10 to 100 nM"
compound="CC(C)n1cc(-c2nn3c4cc(ncc24)Nc2ccnc(n2)-c2cnn(C)c2OCC[C@@H]3C)cc1CN1CCOCC1 [(151)]" recorded_measurement="10 to 100 nM"
compound="CCn1c(CN2CCN(C3CC3)CC2)ccc1-c1nn2c3cc(ncc13)Nc1ccnc(n1)-c1cnn(C)c1OCC[C@@H]2C [(125)]" recorded_measurement="10 to 100 nM"
compound="C[C@H]1CCOc2c(cnn2C)-c2nccc(n2)Nc2cc3c(cn2)c(-c2ccc(CN4CCN(C)CC4)n2C)nn31 [(101)]" recorded_measurement="< 10 nM"
compound="CCn1cc(CN2CCN(C)CC2)cc1-c1nn2c3cc(ncc13)Nc1ccnc(n1)-c1cnn(C)c1OCCC2C (stereo not shown) [(82)]" recorded_measurement="10 to 100 nM"

We next turn to a different compound, shown below.
GET /value?item= CC1CCCCOc2c(cnn2C)-c2nccc(n2)Nc2cc3c(cn2)c(N2CCC2)nn31 (stereo not shown) [(58)] &field=GI50 returns 10 to 100 nM
